Measured values drawn from ChEMBL document CHEMBL2331458 for this set.

- test_description: Cytotoxicity against african green monkey Vero cells
- Type: cell-based
- conditions: chlorocebus sabaeus, read-out: LD50 (the source's name)
Non-standard residues stand in square brackets, D forms with d. Residues, ends and D or L forms follow the SMILES beside them. *: point of attachment. Octanoyl(2R-Me,7,8-dehydro) = C=CCCCC[C@@H](C)C(=O)*; NMeF = CN[C@@H](Cc1ccccc1)C(=O)O; X4 = CC(=O)CCCC[C@@H](C)C(=O)*; Oct(7)enoyl = C=CCCCCCC(=O)*; Oct(7)ynoyl = C#CCCCCCC(=O)*; NMeV = CN[C@H](C(=O)O)C(C)C; Hept6ynoyl = C#CCCCCC(=O)*; NMeA = CN[C@@H](C)C(=O)O; X3 = C=CCCCCC(=O)*
# CC50 values compiled below
measure: CC50 (µM)

[[record]]
compound = "C#CCCCCCC(=O)N(C)[C@H](C(=O)N(C)[C@H](C(=O)N(C)[C@H](C(=O)N(C)[C@@H](C)C(=O)N(C)[C@@H](Cc1ccccc1)C(=O)OC)C(C)C)C(C)C)C(C)C ({Oct(7)ynoyl}-[NMeV][NMeV][NMeV][NMeA][NMeF]-OMe)"
unit_annotation = "µM"
relation_symbol = "="
observed_result = 27

[[record]]
compound = "C=CCCCCCC(=O)N(C)[C@H](C(=O)N(C)[C@H](C(=O)N(C)[C@H](C(=O)N(C)[C@@H](C)C(=O)N(C)[C@@H](Cc1ccccc1)C(=O)OC)C(C)C)C(C)C)C(C)C ({Oct(7)enoyl}-[NMeV][NMeV][NMeV][NMeA][NMeF]-OMe)"
unit_annotation = "µM"
relation_symbol = "="
observed_result = 18.8

[[record]]
compound = "C=CCCCC[C@@H](C)C(=O)N(C)[C@H](C(=O)N(C)[C@H](C(=O)N[C@H](C(=O)N(C)[C@@H](C)C(=O)N(C)[C@@H](Cc1ccccc1)C(N)=O)C(C)C)C(C)C)C(C)C [ALMIRAMIDE C] ({Octanoyl(2R-Me,7,8-dehydro)}-[NMeV][NMeV]V[NMeA][NMeF]-NH2)"
unit_annotation = "µM"
relation_symbol = "="
observed_result = 33.1

[[record]]
compound = "C=CCCCCC(=O)N(C)[C@H](C(=O)N(C)[C@H](C(=O)N(C)[C@H](C(=O)N(C)[C@@H](C)C(=O)N(C)[C@@H](Cc1ccccc1)C(=O)O)C(C)C)C(C)C)C(C)C (X3-[NMeV][NMeV][NMeV][NMeA][NMeF]-OH)"
unit_annotation = "µM"
relation_symbol = ">"
observed_result = 70

[[record]]
compound = "C#CCCCCC(=O)N(C)[C@H](C(=O)N(C)[C@H](C(=O)N(C)[C@H](C(=O)N(C)[C@@H](C)C(=O)N(C)[C@@H](Cc1ccccc1)C(=O)N(C)C)C(C)C)C(C)C)C(C)C (Hept6ynoyl-[NMeV][NMeV][NMeV][NMeA][NMeF]-NMe2)"
unit_annotation = "µM"
relation_symbol = "="
observed_result = 156

[[record]]
compound = "C=CCCCCC(=O)N(C)[C@H](C(=O)N(C)[C@H](C(=O)N(C)[C@H](C(=O)N(C)[C@@H](C)C(=O)N(C)[C@@H](Cc1ccccc1)C(=O)N(C)C)C(C)C)C(C)C)C(C)C (X3-[NMeV][NMeV][NMeV][NMeA][NMeF]-NMe2)"
unit_annotation = "µM"
relation_symbol = "="
observed_result = 93.1

[[record]]
compound = "C=CCCCCCC(=O)N(C)[C@H](C(=O)N(C)[C@H](C(=O)N(C)[C@H](C(=O)N(C)[C@@H](C)C(=O)N(C)[C@@H](Cc1ccccc1)C(=O)O)C(C)C)C(C)C)C(C)C ({Oct(7)enoyl}-[NMeV][NMeV][NMeV][NMeA][NMeF]-OH)"
unit_annotation = "µM"
relation_symbol = "="
observed_result = 192

[[record]]
compound = "CC(=O)CCCC[C@@H](C)C(=O)N(C)[C@H](C(=O)N(C)[C@H](C(=O)N[C@H](C(=O)N(C)[C@@H](C)C(=O)N(C)[C@@H](Cc1ccccc1)C(N)=O)C(C)C)C(C)C)C(C)C [ALMIRAMIDE A] (X4-[NMeV][NMeV]V[NMeA][NMeF]-NH2)"
unit_annotation = "µM"
relation_symbol = "="
observed_result = 113

